test system: SK-MEL-2; experiment: NCI tumour cell line growth inhibition, 48 h
The source made the active and inactive calls. Cut-off read from the data, not from the text of the source: active = GI50 up to about 1.1 µM and inactive = higher.
// values below are reported GI50
quantity_name: GI50

• O=c1nc2n(CCO)c(-c3ccccc3)c(-c3ccccc3)nc-2c(=O)[nH]1 = > 100 µM (inactive)
• CC(CCC#N)(CCC#N)C(=O)CC(O)(C(F)(F)F)C(F)(F)F = 33.7 µM (inactive)
• O=C(CC1C(=O)c2ccccc2C1=C1C(=O)c2ccccc2C1=O)c1ccccc1 (stereo unspecified) = > 100 µM (inactive)
• COC1CC(OC2CCC3(C)C(CCC45CCC(C6=CC(=O)OC6)C(C)(CCC43)C5=O)C2)OC(C)C1O (stereo unspecified) = 31.3 µM (inactive)
• Cc1n[nH]c(=O)n1/N=C/c1ccc([N+](=O)[O-])o1 = 14.2 µM (inactive)
• CCCCCCc1cc2cc(C(=O)Nc3cccc(C(F)(F)F)c3)c(=N)oc2cc1O = 2.17 µM (inactive)
• C[C@@H]1C[C@]2(C[C@@H](C)[C@H]3C(C[C@@]4(C)CCC[C@@H]5C6=C[C@H](CCC34C)OC6=CC(=O)OC5(C)C)O2)OC1=O (stereo partly specified) = > 51.5 µM (inactive)
• CC(=O)Oc1c(-c2ccccc2)sc2ccccc12 = 13.3 µM (inactive)
• CSc1nc(C)cc(=O)n1C1OC(COC(C)=O)C(OC(C)=O)C(OC(C)=O)C1OC(C)=O (stereo unspecified) = 53.3 µM (inactive)
• CC12Oc3ccc4ccccc4c3CC1Cc1c(ccc3ccccc13)O2 (stereo unspecified) = 48 µM (inactive)
• CCOC(=O)c1cn(CC)c2cc3c(cc2c1=O)CCS3(=O)=O = 19.1 µM (inactive)
